Molecular target: pro-uPA and plasminogen (Homo sapiens)
Construct: purchased Sigma Aldrich (China)
Sequence (P00747 20-810 limits assumed): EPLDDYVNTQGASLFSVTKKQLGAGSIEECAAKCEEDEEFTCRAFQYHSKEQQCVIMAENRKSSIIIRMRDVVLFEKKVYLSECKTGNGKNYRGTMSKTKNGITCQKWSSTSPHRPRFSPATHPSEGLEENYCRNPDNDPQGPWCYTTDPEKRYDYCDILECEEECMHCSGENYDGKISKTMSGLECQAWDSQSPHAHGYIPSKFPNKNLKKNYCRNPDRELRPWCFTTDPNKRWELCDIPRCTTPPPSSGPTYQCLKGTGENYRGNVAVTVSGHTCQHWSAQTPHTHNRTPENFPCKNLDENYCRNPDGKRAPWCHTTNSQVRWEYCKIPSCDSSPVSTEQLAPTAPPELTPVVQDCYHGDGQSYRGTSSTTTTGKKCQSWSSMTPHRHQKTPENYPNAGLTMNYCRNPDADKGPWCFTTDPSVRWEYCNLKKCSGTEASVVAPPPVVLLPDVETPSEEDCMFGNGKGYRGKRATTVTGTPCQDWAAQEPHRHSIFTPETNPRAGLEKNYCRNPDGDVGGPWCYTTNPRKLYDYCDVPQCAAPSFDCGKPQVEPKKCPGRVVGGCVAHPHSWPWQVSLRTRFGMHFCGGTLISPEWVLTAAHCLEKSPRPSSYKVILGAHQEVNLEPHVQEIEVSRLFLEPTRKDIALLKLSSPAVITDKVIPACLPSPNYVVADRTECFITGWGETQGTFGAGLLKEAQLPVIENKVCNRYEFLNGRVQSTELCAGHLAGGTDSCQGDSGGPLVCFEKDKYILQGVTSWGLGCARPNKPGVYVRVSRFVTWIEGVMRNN
Assay: Fibrinolytic activity in vitro (reciprocal activation of pro-uPA and plasminogen, urokinase activity by chromogenic substrate S-2444)
Type: biochemical
Conditions: in vitro; slope of kinetic curve A405 nm, S-2444; mean of two independent experiments
Measured endpoint: EC50 (fibrinolytic activity) (µM)

compound=CCOC(=O)[C@@H](CCCN1Cc2c(cc(OCC)c3c2O[C@](C)(CC/C=C(\C)CCC=C(C)C)[C@H](O)C3)C1=O)N1Cc2c(cc(OCC)c3c2O[C@](C)(CC/C=C(\C)CCC=C(C)C)[C@H](O)C3)C1=O value_reported=87.1
compound=CC(C)=CCC/C(C)=C/CC[C@@]1(C)Oc2c(c(OCc3ccccc3Br)cc3c2CN(CCC[C@H](C(=O)OCc2ccccc2Br)N2Cc4c(cc(OCc5ccccc5Br)c5c4O[C@](C)(CC/C=C(\C)CCC=C(C)C)[C@H](O)C5)C2=O)C3=O)C[C@H]1O value_reported=119.6
compound=CC(C)=CCC/C(C)=C/CC[C@@]1(C)Oc2c(c(OCc3ccc(OC(F)(F)F)cc3)cc3c2CN(CCC[C@H](C(=O)OCc2ccc(OC(F)(F)F)cc2)N2Cc4c(cc(OCc5ccc(OC(F)(F)F)cc5)c5c4O[C@](C)(CC/C=C(\C)CCC=C(C)C)[C@H](O)C5)C2=O)C3=O)C[C@H]1O value_reported=133.3
compound=CC(C)=CCC/C(C)=C/CC[C@@]1(C)Oc2c(c(OCc3ccc(C#N)cc3)cc3c2CN(CCC[C@H](C(=O)OCc2ccc(C#N)cc2)N2Cc4c(cc(OCc5ccc(C#N)cc5)c5c4O[C@](C)(CC/C=C(\C)CCC=C(C)C)[C@H](O)C5)C2=O)C3=O)C[C@H]1O value_reported=82.8
compound=CC(C)=CCC/C(C)=C/CC[C@@]1(C)Oc2c(c(OCc3ccc(Br)cc3)cc3c2CN(CCC[C@H](C(=O)OCc2ccc(Br)cc2)N2Cc4c(cc(OCc5ccc(Br)cc5)c5c4O[C@](C)(CC/C=C(\C)CCC=C(C)C)[C@H](O)C5)C2=O)C3=O)C[C@H]1O value_reported=42.3

(P) CCCOC(=O)[C@@H](CCCN1Cc2c(cc(OCCC)c3c2O[C@](C)(CC/C=C(\C)CCC=C(C)C)[C@H](O)C3)C1=O)N1Cc2c(cc(OCCC)c3c2O[C@](C)(CC/C=C(\C)CCC=C(C)C)[C@H](O)C3)C1=O
(Q) CC(C)=CCC/C(C)=C/CC[C@@]1(C)Oc2c(c(O)cc3c2CN(CCC[C@H](C(=O)O)N2Cc4c(cc(O)c5c4O[C@](C)(CC/C=C(\C)CCC=C(C)C)[C@H](O)C5)C2=O)C3=O)C[C@H]1O [FGFC1, reference compound]
// query Between P and Q , which one has the lower reported EC50 (fibrinolytic activity) value? Answer by quoting the chosen item's label.
// result P

Just for reference, paper PMC8071544 is where these values come from.
